Data origin: PubChem BioAssay

Item-by-item account of inhibition
assay: UWB1.289_BRCA1 ovarian cancer growth, cell-based, BGB or cisplatin combinations (AID 1671459); settings: UWB1.289 BRCA1 ovarian carcinoma, drug combinations, BGB combination, concentration series, at 5 µM, stronger effect = higher value

Below are worked cases with known answers.
The recorded inhibition for entry CC(=O)Nc1nc(C)c(-c2ccc(Cl)c(S(=O)(=O)NCCO)c2)s1 equals 22.7%

The recorded inhibition for entry CC(C)OC(=O)[C@H](C)N[P@](=O)(OC[C@H]1O[C@@H](n2ccc(=O)[nH]c2=O)[C@](C)(F)[C@@H]1O)Oc1ccccc1 equals 0.431%

The recorded inhibition for entry Nc1ccc(-c2ccc3ncc4ccc(=O)n(-c5cccc(C(F)(F)F)c5)c4c3c2)cn1 equals 98.8%

The recorded inhibition for entry O=c1[nH]c([C@@H]2CCCN2)nc2c1oc1ccc(Cl)cc12 equals -4.02%

The recorded inhibition for entry COc1ccc(-n2c(SCCCN3C(=O)c4cccc5cccc(c45)C3=O)nnc2-c2ccncc2)cc1 equals 7.08%

The recorded inhibition for entry O=C(/C=C/c1ccc(CN(CCO)CCc2c[nH]c3ccccc23)cc1)NO equals 126%

Continuing:
The recorded inhibition for entry CN(C)c1ccc(C(=O)NCCCCCCC(=O)NO)cc1 equals 88.6%

---

Item-by-item account of fold change
test: viability loss with induced miR-34 in A549 – imaging, A549 dox-inducible miR-34, nuclei and caspase counts, primary screen (AID 1347080); details: A549 miR-34 inducible, Hoechst nuclei count, 48 h; stronger effect = lower value; cell number ratio, induced over uninduced
Format: numeric value only, no unit, no commentary.

The recorded fold change for entry CCCCCCCCCC(=O)NC(CN1CCOCC1)C(O)c1ccccc1 (stereo not given) equals 1.03

The recorded fold change for entry CCCCC/C=C\CCCC/C=C\C/C=C\CCCC(=O)O equals 0.917

The recorded fold change for entry O=C(O)CCC/C=C\C[C@@H]1[C@@H](CC[C@@H](O)CCc2cccc(C(F)(F)F)c2)[C@H](O)C[C@@H]1O equals 0.926

The recorded fold change for entry COc1ccc(NC(=O)c2cc(OCCCN(C)C)nn2Cc2ccccc2)cc1 equals 0.937

The recorded fold change for entry Cc1c(O)cccc1C(=O)NC(CSc1ccccc1)C(O)CN1CC2CCCCC2CC1C(=O)NC(C)(C)C (stereo not given) equals 1.31

Continuing:
The recorded fold change for entry COc1ccc2[nH]c(-c3ccccc3)c(CCNC(C)=O)c2c1 equals 0.991

The recorded fold change for entry CC(C)[C@H](C(=O)Nc1ccc(C(=O)NO)cc1)c1ccccc1 equals 0.834

The recorded fold change for entry CCN(CC)C(=O)CCC/C=C\C[C@@H]1[C@@H](/C=C/[C@@H](O)CCc2ccccc2)[C@H](O)C[C@@H]1O equals 0.995

The recorded fold change for entry C=CC(=O)Nc1ccc2ncnc(Nc3ccc(OCc4cccc(F)c4)c(Cl)c3)c2c1 equals 0.764

The recorded fold change for entry CCCNS(=O)(=O)Nc1ncnc(OCCOc2ncc(Br)cn2)c1-c1ccc(Br)cc1 equals 0.925

---

assay: drug combination growth inhibition, ovarian cancer – cell-based, oncology-focused library, rucaparib conditional, profiling panel (AID 1508598); conditions: patient-derived ovarian cancer cells, CellTiter-Glo viability, 144 h; at 5 µM; OCI-P5x cells; without rucaparib; stronger effect = lower value
Active and inactive are the calls of the source.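 Rule for the calls: active = normalized viability below 100% at a tested concentration; inactive = the rest.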
reported_metric: viability

The recorded viability for entry O=c1cc(N2CCOCC2)oc2c(-c3cccc4c3sc3ccccc34)cccc12 equals 78.7% (active)

The recorded viability for entry COC(=O)c1ccc2c(C(=Nc3ccc(N(C)C(=O)CN4CCN(C)CC4)cc3)c3ccccc3)c(O)[nH]c2c1 equals 59.1% (active)

The recorded viability for entry CN1CCN(c2ccc3nc(-c4c(N)c5c(F)cccc5[nH]c4=O)[nH]c3c2)CC1 equals 50% (active)

The recorded viability for entry O=C(Nc1ccccc1-c1cn2c(CN3CCNCC3)csc2n1)c1cnc2ccccc2n1 equals 0.751% (active)

The recorded viability for entry O=C(/C=C/c1cccc(S(=O)(=O)Nc2ccccc2)c1)NO equals 3.18% (active)

Continuing:
The recorded viability for entry CS(=O)(=O)N1CCc2c(-c3cnc(N)nc3)nc(N3CCOCC3)nc21 equals 16.9% (active)

The recorded viability for entry Cn1cnc(=N)c2[nH]cnc21 equals 110% (inactive)

The recorded viability for entry CCC[C@H](NC(=O)/C(C#N)=C/c1cccc(Br)n1)c1ccccc1 equals 8.95% (active)

The recorded viability for entry OCCn1cc(-c2cnc3nnn(Cc4ccc5ncccc5c4)c3n2)cn1 equals 94.2% (active)

The recorded viability for entry O=C(CCCCCCC(=O)Nc1ccc([C@H]2O[C@@H](CSc3nc(-c4ccccc4)c(-c4ccccc4)o3)C[C@@H](c3ccc(CO)cc3)O2)cc1)NO equals 108% (inactive)

The recorded viability for entry Cc1ccc(S(=O)(=O)Nc2nc3ccccc3nc2Nc2ccc3nsnc3c2)cc1 equals 102% (inactive)

The recorded viability for entry O=C(Nc1cccnc1)N1CCC(Cc2cccc(Oc3ccc(C(F)(F)F)cn3)c2)CC1 equals 85.5% (active)
